- TARGET_DESC: human mGlu5a receptor (Homo sapiens (Human))
- Sequence (P41594 other isoform, or with tags, fused parts or gaps): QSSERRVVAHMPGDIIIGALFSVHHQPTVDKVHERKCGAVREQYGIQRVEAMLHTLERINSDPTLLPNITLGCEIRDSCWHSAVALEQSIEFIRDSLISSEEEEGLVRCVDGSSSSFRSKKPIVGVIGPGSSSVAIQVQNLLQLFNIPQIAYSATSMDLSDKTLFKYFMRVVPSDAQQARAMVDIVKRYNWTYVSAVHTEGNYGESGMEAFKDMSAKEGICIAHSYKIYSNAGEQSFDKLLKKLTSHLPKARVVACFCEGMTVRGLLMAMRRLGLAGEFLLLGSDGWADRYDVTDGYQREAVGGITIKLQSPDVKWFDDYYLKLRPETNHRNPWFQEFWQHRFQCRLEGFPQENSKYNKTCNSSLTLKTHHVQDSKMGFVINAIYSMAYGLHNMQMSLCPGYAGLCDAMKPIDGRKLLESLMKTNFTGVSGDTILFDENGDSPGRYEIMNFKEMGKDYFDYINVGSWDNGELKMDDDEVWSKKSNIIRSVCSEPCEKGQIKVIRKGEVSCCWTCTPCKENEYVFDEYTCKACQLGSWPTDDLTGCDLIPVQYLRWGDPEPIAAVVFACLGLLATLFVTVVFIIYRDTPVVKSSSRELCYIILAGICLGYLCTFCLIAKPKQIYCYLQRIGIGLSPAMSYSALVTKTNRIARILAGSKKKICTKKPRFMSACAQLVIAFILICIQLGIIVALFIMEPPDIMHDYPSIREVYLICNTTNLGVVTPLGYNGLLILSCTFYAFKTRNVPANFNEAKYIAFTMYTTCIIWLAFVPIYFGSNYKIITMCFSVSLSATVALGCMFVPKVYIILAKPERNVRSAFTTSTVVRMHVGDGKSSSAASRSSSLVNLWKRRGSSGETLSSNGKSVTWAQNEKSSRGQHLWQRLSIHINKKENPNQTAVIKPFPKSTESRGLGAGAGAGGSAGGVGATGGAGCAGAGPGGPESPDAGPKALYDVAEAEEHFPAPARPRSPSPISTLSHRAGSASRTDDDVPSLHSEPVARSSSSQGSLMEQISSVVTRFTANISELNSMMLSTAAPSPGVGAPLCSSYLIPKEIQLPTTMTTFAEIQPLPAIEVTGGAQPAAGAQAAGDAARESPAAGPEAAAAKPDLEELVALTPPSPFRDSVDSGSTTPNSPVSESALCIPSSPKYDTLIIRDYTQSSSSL
- ASSAY_METHOD_TEXT: Intracellular Ca2+ mobilization assay (mGlu5 PAM)
- Assay type: cell-based
- EXPERIMENTAL_SETUP: HEK-293 cells stably transfected with human mGlu5a; L-glutamate added at EC20 after pre-incubation with test compound; read-out: EC50 (nM) mGlu5PAM
Entries and their EC50 values follow.
Just the number in nM, nothing appended.

>  <COMPOUND>
CC(C)N1C(=O)N(c2ncc(C#Cc3ccccc3)cn2)CC1(C)C

>  <EC50 / nM>
28

$$$$
>  <COMPOUND>
COC1CN(c2ccc(C#Cc3ccccc3)cn2)C(=O)OC1(C)C (racemic)

>  <EC50 / nM>
22

$$$$
>  <COMPOUND>
CC(C)N1C(=O)N(c2ncc(C#Cc3ccc(F)cc3)cn2)CC1(C)C

>  <EC50 / nM>
78

$$$$
>  <COMPOUND>
O=C1N(c2ccc(C#Cc3cccc(F)c3)cn2)CC2CCCCN12 (racemic)

>  <EC50 / nM>
17

$$$$
>  <COMPOUND>
COCC1CCN(c2ccc(C#Cc3ccccc3)cn2)C(=O)O1 (racemic)

>  <EC50 / nM>
68

$$$$
>  <COMPOUND>
CN1C(=O)N(c2ncc(C#Cc3ccccc3)cn2)CC12CC2

>  <EC50 / nM>
25

$$$$
>  <COMPOUND>
CCN1C(=O)N(c2ccc(C#Cc3ccccc3)cn2)C2CCCCC21 (stereo not drawn)

>  <EC50 / nM>
18

$$$$
>  <COMPOUND>
O=C1[C@H]2CCC[C@H]2N1c1ccc(C#Cc2cccnc2)cn1 (racemic)

>  <EC50 / nM>
39

$$$$

Data point: CC1(C)CCN(c2ccc(C#Cc3ccc(F)cc3)cn2)C(=O)C1 ; EC50 = 67
